Please go through the items and note down their IC50.
- tested.on: human TLR9 (Homo sapiens (Human))
- Sequence (Q9NR96 26-1032): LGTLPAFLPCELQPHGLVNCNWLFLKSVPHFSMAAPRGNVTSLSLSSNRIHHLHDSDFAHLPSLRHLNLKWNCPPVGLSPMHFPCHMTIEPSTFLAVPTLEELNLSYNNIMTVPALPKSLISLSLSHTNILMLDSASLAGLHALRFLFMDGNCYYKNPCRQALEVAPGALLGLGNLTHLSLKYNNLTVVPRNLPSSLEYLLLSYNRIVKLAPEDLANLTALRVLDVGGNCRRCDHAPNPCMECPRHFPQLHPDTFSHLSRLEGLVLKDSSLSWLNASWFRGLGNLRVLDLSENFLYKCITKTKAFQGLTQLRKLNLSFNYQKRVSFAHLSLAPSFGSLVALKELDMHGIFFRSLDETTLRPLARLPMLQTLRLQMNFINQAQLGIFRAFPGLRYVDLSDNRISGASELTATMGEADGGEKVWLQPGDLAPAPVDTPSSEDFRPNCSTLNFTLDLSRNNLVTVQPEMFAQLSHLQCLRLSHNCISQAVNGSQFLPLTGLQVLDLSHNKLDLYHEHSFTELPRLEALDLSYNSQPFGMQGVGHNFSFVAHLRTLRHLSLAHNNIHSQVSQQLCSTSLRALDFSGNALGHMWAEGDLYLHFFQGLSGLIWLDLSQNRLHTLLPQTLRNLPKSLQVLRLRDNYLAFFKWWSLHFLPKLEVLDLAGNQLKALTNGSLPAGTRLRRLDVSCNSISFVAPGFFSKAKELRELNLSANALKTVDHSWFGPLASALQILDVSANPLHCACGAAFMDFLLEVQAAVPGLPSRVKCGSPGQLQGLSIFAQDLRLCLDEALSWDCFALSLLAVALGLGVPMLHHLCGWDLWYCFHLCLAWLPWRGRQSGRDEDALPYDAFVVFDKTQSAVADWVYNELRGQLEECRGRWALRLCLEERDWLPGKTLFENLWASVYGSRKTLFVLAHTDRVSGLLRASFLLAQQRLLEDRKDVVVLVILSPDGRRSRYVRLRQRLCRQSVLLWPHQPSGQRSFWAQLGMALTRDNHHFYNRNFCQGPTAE
- measurement.description: TLR9 inhibition reporter assay (HEK-Blue SEAP);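 also: SEAP driven by IFN-β minimal promoter carrying five NF-κB and AP-1 sites, 22 h at 37 °C, compounds 0.05 nM–50 µM, inhibition scaled between agonist-plus-DMSO and reference-inhibitor wells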
- condition.set: read-out: TLR9 IC50; HEK-Blue cells overexpressing human TLR9, ODN2006 5 nM stimulation, SEAP reporter

Recorded IC50, per entry:
>>> data_value("COc1cc(-c2[nH]c3cnc(N4CCC(N(C)CC(=O)N(C)C)CC4)c(F)c3c2C(C)C)cn2ncnc12")
"6.08 µM"
>>> data_value("CCN(C)C1CCN(c2ncc3[nH]c(-c4cc(C)c5ncnn5c4)c(C(C)C)c3c2F)CC1")
"4.05 µM"
>>> data_value("Cc1cc(-c2[nH]c3cnc(C4CCNCC4)c(F)c3c2C(C)C)cc(C)n1")
"0.768 µM"
>>> data_value("Cc1c(N2CCC(NC(C)C)CC2)ncc2[nH]c(-c3cc(C)c4ncnn4c3)c(C(C)C)c12")
"0.939 µM"
>>> data_value("CCN(C)C1CCN(c2ncc3[nH]c(-c4cc(OC)c5ncnn5c4)c(C(C)C)c3c2F)CC1")
"2.82 µM"
>>> data_value("COc1cc(-c2[nH]c3cnc(C4CCC(NC5(C)COC5)CC4)c(F)c3c2C(C)C)cn2ncnc12 (centres unmarked) [Example 192]")
"3.14 µM"
>>> data_value("COc1cc(-c2[nH]c3cnc(C4CCN(C5COC5)CC4)c(C)c3c2C(C)C)cn2ncnc12")
"1.29 µM"
>>> data_value("Cc1c(-c2[nH]c3cnc(N4CCN(CCS(C)(=O)=O)CC4)c(C)c3c2C(C)C)cn2ncnc2c1C")
"> 50 µM"

Please state IC50 for every compound in the list that follows.
1. CNC(=O)CN(C)C1CCN(c2ncc3[nH]c(-c4cc(C)c5ncnn5c4)c(C(C)C)c3c2F)CC1
2. CNC(=O)CN1CCN(c2cc3c(C(C)C)c(-c4cc(C)c5ncnn5c4)[nH]c3cn2)CC1

16.8 µM
> 50 µM

Please state IC50 for every compound in the list that follows.
1. Cc1cc(-c2[nH]c3cnc(N4CCC(N5CC6(COC6)C5)CC4)c(F)c3c2C(C)C)cn2ncnc12
2. CC(=O)N1CCN(c2ncc3[nH]c(-c4cn5ncnc5c(C)c4C)c(C(C)C)c3c2F)CC1
3. CNC(=O)CN1CCN(c2ncc3[nH]c(-c4cc(OC)c5ncnn5c4)c(C(C)C)c3c2F)[C@H](C)C1
4. COc1cc(-c2[nH]c3cnc(N4CCN(CC(N)=O)CC4)c(F)c3c2C(C)C)cn2ncnc12

["2.77 µM", "> 50 µM", "> 50 µM", "> 50 µM"]
